Species on record: Mus musculus
Assay: animal or person
Assay type: functional
Settings: ddY, route oral
PARAMETER MEASURED: inhibition in vivo at 3 mg/kg (%)
Your answer is read as %, so omit the unit and give the number.

Kindly note the recorded inhibition in vivo at 3 mg/kg for `Cn1c(N2CCCN(CCCN3c4ccccc4Sc4ccc(CCC(=O)O)cc43)CC2)cc(=O)n(C)c1=O` , which is 51

Kindly note the recorded inhibition in vivo at 3 mg/kg for CCC(C(=O)O)c1ccc2c(c1)N(CCCN1CCCN(c3cc(=O)n(C)c(=O)n3C)CC1)c1ccccc1S2 (stereo not drawn) , which is 51

Kindly note the recorded inhibition in vivo at 3 mg/kg for `Cn1c(N2CCN(CCCN3c4ccccc4Sc4ccc(CCC(=O)O)cc43)CC2)cc(=O)n(C)c1=O` , which is 51

====

Test: Apparent permeability from apical to basolateral side of human Caco-2 cells after 120 mins
Field: label. Allowed values: satisfied (Papp A→B at 2 h < 5 ×10⁻⁶ cm/s) or not satisfied (Papp A→B at 2 h >= 5 ×10⁻⁶ cm/s).

- MOLECULE: "Cn1c(N2CCCN(CCCN3c4ccccc4Sc4cccc(C(=O)O)c43)CC2)cc(=O)n(C)c1=O"
  LABEL CLASS: "satisfied"
- MOLECULE: "CC(C(=O)O)c1ccc2c(c1)N(CCCN1CCCN(c3cc(=O)n(C)c(=O)n3C)CC1)c1ccccc1S2 (stereo unspecified)"
  LABEL CLASS: "not satisfied"
- MOLECULE: "Cn1c(N2CCCN(CCCN3c4ccccc4Sc4ccc(C(C)(C)C(=O)O)cc43)CC2)cc(=O)n(C)c1=O"
  LABEL CLASS: "not satisfied"
- MOLECULE: "Cn1c(N2CCCN(CCCN3c4ccccc4Sc4ccc(C(=O)O)cc43)CC2)cc(=O)n(C)c1=O"
  LABEL CLASS: "satisfied"

As a next step, examine the molecule that follows.
Dear reviewer, please state whether `Cn1c(N2CCCN(CCCN3c4ccccc4Sc4ccc(CCC(=O)O)cc43)CC2)cc(=O)n(C)c1=O` has Papp A→B at 2 h strictly beneath 5 ×10⁻⁶ cm/s.
not satisfied
